Test system: BT-549 breast
test_summary: NCI-60 one-dose screen, 48 h
condition_context: 10 µM unless noted
About 83,000 compounds went through this panel and 20% of them were active in at least one assay; those are over-represented in the sample as a whole. Calls of active or inactive are those of the source. Rule for the calls: active = growth percent below 10; inactive = the rest.
Give one outcome, nothing more. List: class 1 (active), class 0 (inactive)

Past entries and their recorded results:
Status in this test for NS(=O)(=O)c1ccc(Nc2nc(Nc3ccccc3)nc(-n3nc(-c4ccccc4)cc3-c3ccccc3)n2)cc1 ?
class 0

Identify the outcome logged in this assay for the molecule shown: COc1cc2cc(Oc3ccc(NC(=O)c4cccc(C(F)(F)F)c4)cc3)c(C)nc2cc1OCCN1CCCCC1
class 0

---
Hi team, can someone confirm the assay call for O=C(CSc1nccc(=O)[nH]1)Nc1ccc(-c2nc3ccccc3[nH]2)cc1 ?
class 0

Returns: the outcome recorded for Cc1cc(=O)oc2cc(OCCCOc3ccc(/C=C/C(=O)Nc4ccc(Cl)cc4)cc3)ccc12 in this assay.
class 0

Please state the recorded outcome for this molecule: O=C(CSc1nnc(-c2ccc3nc(-c4ccc(Cl)cc4)[nH]c3c2)o1)Nc1ccc(C(=O)/C=C/c2ccc(Cl)cc2)cc1
class 0

Could you please tell me the result logged for Cc1nc(-c2cc3ccccc3oc2=O)ccc1C(=O)/C=C/c1ccc(Cl)c(Cl)c1 in this assay?
class 0

Hello, I am checking results. What call was entered for NS(=O)(=O)c1cccc(Nc2nc(SCC(=O)c3ccc(Br)cc3)nc3ccccc23)c1 ?
class 1

Given C#Cc1nc(C2=C(C)C(O)/C(=N/O)C2)cs1 (centres undefined) , state the outcome it received in this test.
class 0

Outcome logged for C#Cc1nc(C2=C(C)C(=N\O)/C(=N/O)C2)cs1 in this assay:
class 0
